Ref: paper PMC2631437

# target: T1, MotA Q76R, full length (bacteriophage T4, UniProt P22915 1-211, Q76R)
# T1 sequence (looked up): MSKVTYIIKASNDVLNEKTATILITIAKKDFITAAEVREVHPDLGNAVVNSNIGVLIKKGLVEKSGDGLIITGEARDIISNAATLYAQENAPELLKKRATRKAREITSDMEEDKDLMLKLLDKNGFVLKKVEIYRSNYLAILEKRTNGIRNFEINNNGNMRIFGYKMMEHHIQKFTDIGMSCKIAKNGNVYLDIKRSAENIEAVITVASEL
# measurementNotes: fluorescence polarisation
Where no end group is shown, it is not given here. The star is where a group is joined. FITC = O=C1OC2(c3ccc(O)cc3Oc3cc(O)ccc32)c2ccc(NC(=S)*)cc21
measurementKind: pKd
Numbers only, as −log10 of the molar value.

Request: Which pKd value belongs to {FITC}-PSRSEVLRSFLDD (peptide, UniProt P00579 601-613, looked up) [fluorescein-tagged σ4-H5 peptide (σ^70 residues 601-613)] ?
Result: 4.41
